experiment: P. aeruginosa biofilm formation inhibitors, primary screen, PAO1 strain, BacTiter-Glo luminescence, LB-PBS (AID 1144); conditions: 12 h, higher = more signal
# maps each entry to its z-score
# output: bare number, no unit

Look up z-score: CC(C)(C)N1CC=CC23O[C@@H]4C=CCCOC(=O)C4[C@H]2C(=O)N(CCCCCO)[C@@H]3C1=O (some centres undefined)
-0.174

###

experiment: P. aeruginosa biofilm formation inhibitors, primary screen, strain PAO1, LB-PBS medium, absorbance 600 nm (AID 1176); details: P. aeruginosa PAO1 growth/biofilm, A600, 12 h; higher = more signal
# maps each entry to its z-score
# output: bare number, no unit

Illustrative cases are given below, each with its answer.
| COMPOUND | z-score |
| --- | --- |
| O=C1[C@H]2[C@H]3[C@H](O)[C@H](O)CC(=NO[C@@H]4O[C@H](CO)[C@@H](O)[C@H](O)[C@H]4O)[C@@H]3CC[C@H]2C(=O)N1Cc1ccc2c(c1)OCO2 | -0.389 |
| O[C@@H](Cc1ccccc1)[C@H]1C2C=CCCC(c3ccccc3)=C2CN1Cc1cccc(Cl)c1 (stereo partly drawn) | 1.56 |
| Cc1cc(C)c(-c2cc([C@H](C)ON=C3[C@H]4CCn5c(=O)n(-c6ccccc6)c(=O)n5[C@H]4[C@H](O)[C@@H]4O[C@H]34)on2)c(C)c1 | -0.242 |
| COC(=O)CC1OC1[C@H](C)[C@@H](OC)C(C)C (stereo partly drawn) | 0.699 |
| CO[C@@H]1COC(=O)CC=C[C@@H](C)COC(=O)[C@H](COCc2ccccc2)NC(=O)CC=C[C@H]1C | -0.969 |
| CCc1cc2c(nc1CC)CCN(CCC(C)=NOC[C@@H](O)COCc1ccco1)C2 | -0.0174 |
| Cc1cc2c(c(=O)o1)[C@H](O)[C@H]1O[C@H]1C2=O | -0.282 |

Note: attention shifts to another entry.
Look up z-score: CCc1cc2c(nc1CC)CCN(CCC(C)=NO[C@@H](C)c1cc(-c3c(C)cc(C)cc3C)no1)C2
0.903

###

biological target: Calmodulin-1 (Homo sapiens) (UniProt P0DP23); test: CALM1 binders on microarrays, EGTA buffer, profiling panel, biochemical, small-molecule microarray, Cy5-labelled CALM1 (AID 1111); details: Cy5-CALM1 binding fluorescence, higher = more signal;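 also: labelled calmodulin applied in Tris saline Tween buffer holding calcium plus EGTA and DTT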
Would you please tag the item class 1 when its composite z-score is 0.01 or above, and class 0 when it is below?

Determine whether measured composite z-score meets or exceeds 0.01 for C#C[C@@H]1Oc2ccccc2S(=O)(=O)N2CCC[C@H]12
class 0

Determine whether measured composite z-score meets or exceeds 0.01 for CC(C)=C1C(=O)C(c2ccccc2)=C2CN3C(=O)N(CCc4ccccc4)C(=O)[C@]3(Cc3ccc(F)cc3)[C@H]21
class 1

Determine whether measured composite z-score meets or exceeds 0.01 for Cc1cc2c(nc1C)CCCN2CC(O)CN1CCN(C)CC1 (stereo not given)
class 0

Determine whether measured composite z-score meets or exceeds 0.01 for CC1CC/C=C\[C@H]2OC34C=CCN(Cn5nnc6ccccc65)C(=O)[C@H]3N(CCO)C(=O)[C@@H]4C2C(=O)O1 (stereo not given in full)
class 0

###

system: XIP peptide (Xip251-270) binding; assay: small-molecule binders of XIP peptide, primary screen, biochemical, small-molecule microarray, fluorescence 635/667 nm, 0.1 µg/mL protein (AID 1182); details: fluorescent protein binding, 635 nm, higher = more signal, called active from +8 up or from −8 down
The source made the active and inactive calls.
# maps each entry to its composite z-score

Illustrative cases are given below, each with its answer.
| STRUCTURE_STRING | TEST_RESULT |
| --- | --- |
| C[C@@H]1CC[C@H]2C(=O)O[C@H](COc3ccc(C(C)(C)C)cc3)CN2[C@H]1c1ccc(Br)cc1 | -0.418 (inactive) |
| CC(C)C[C@@H]1NC(=O)[C@H]2C[C@@H](C(=O)NCCCCCCN(C)C)[C@@H](c3cccc(OCCO)c3)N2C1=O | 2.09 (inactive) |
| CCCNC(=O)OC[C@H]1O[C@H](CCON=C[C@@H](OC)[C@H](C)C=CCC(=O)OC)C=C[C@@H]1Oc1ccc(OC)cc1 | 0.228 (inactive) |
| COc1ccc(O[C@H]2C=C[C@@H](c3ccccc3)O[C@@H]2COC(=O)CCC(C)=NO[C@H](C)c2cn([C@@H]3COC[C@H]3O)nn2)cc1 | 0.0628 (inactive) |
| O=C1[C@H]2[C@H]3[C@H](O)[C@H](O)CC(=NO[C@@H]4O[C@H](CO)[C@@H](O)[C@H](O)[C@H]4O)[C@@H]3CC[C@H]2C(=O)N1Cc1ccccc1 | 0.0711 (inactive) |
| CCOC(=O)CCN1C(=O)[C@H]2[C@H]3[C@H](O)[C@H](O)CC(=O)[C@H]3CC[C@H]2C1=O | -0.245 (inactive) |

Note: attention shifts to another entry.
Look up composite z-score: COC(=O)[C@@]1(Cc2ccc(F)cc2)[C@H]2c3cc(C(=O)N(C)C)n(Cc4ccc(OC)c(OC)c4)c3C[C@H]2CN1C(=O)c1ccccc1
0.316 (inactive)

Every entry's value here was drawn from PubChem BioAssay.
